# study-system: α4β1 Integrin (Homo sapiens, UniProt P05556+P13612)
# Construct: endogenous in cells; host or cells: Jurkat cells
# Sequence (P13612 34-1032): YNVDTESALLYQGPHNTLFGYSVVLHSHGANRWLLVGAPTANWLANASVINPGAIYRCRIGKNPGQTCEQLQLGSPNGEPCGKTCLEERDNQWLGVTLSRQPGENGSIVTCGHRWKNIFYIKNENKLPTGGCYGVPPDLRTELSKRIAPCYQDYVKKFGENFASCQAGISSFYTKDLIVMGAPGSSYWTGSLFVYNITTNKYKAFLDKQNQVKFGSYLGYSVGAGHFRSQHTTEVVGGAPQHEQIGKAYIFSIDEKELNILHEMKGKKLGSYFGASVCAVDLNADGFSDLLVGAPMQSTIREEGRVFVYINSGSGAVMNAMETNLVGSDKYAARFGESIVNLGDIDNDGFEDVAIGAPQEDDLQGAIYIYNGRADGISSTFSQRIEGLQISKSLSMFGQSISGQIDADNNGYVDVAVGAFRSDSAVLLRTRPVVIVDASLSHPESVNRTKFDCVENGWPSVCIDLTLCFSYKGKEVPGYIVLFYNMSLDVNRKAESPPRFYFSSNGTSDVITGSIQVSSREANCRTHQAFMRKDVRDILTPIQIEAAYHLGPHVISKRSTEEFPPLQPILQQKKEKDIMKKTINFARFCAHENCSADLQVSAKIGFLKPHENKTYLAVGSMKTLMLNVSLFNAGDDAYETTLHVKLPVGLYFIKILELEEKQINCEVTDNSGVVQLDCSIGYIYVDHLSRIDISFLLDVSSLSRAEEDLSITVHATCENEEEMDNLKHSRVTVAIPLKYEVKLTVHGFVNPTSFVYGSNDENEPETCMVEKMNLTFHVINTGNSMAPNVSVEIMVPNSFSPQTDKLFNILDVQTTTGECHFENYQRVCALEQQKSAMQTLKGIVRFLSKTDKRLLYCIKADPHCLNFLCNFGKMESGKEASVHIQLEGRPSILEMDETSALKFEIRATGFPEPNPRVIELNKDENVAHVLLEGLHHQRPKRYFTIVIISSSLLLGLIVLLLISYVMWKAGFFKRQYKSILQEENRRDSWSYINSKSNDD
# Sequence (P05556 21-798): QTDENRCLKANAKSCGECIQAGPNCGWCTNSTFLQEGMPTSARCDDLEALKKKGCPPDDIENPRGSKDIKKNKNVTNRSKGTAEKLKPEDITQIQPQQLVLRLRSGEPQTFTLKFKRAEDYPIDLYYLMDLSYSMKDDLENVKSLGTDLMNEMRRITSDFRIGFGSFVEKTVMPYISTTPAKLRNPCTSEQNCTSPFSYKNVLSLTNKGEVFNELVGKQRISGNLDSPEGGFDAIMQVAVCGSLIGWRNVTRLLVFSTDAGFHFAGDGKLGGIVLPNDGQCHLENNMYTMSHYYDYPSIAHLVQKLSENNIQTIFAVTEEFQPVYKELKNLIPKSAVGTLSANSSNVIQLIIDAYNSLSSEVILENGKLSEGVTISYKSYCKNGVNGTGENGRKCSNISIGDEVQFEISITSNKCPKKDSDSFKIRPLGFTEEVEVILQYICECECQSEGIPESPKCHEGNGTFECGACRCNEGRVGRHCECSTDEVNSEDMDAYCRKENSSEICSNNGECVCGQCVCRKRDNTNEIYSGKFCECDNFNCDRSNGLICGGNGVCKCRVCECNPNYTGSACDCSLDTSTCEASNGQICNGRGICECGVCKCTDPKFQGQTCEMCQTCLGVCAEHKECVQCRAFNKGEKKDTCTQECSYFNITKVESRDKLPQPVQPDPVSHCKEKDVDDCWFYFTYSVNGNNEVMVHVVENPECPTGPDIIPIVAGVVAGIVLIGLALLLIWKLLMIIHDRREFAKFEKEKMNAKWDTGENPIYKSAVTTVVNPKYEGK
# protocol: α4β1 Integrin Adhesion Assay: Jurkat cell adhesion to human plasma fibronectin
# Type: cell-based
# stated-conditions: IC50, Cell Adhesion to Human Plasma Fibronectin (Without the Human Serum), Jurkat cells, without human serum
The entries below are paired with their reported IC50.
quantity-name: IC50 (nM)

>  <compound>
CCN(CC)c1ncc(N(C)S(=O)(=O)c2cccc(F)c2)c(N[C@@H](Cc2ccc(OC(=O)N(C)C)cc2)C(=O)O)n1 [Example 7]

>  <quantity-name>
IC50

>  <recorded-number>
1.39

$$$$
>  <compound>
CCN(CC)c1ncc(N(C)S(=O)(=O)c2cc(F)cc(F)c2)c(N[C@@H](Cc2ccc(OC(=O)N(C)C)cc2)C(=O)O)n1 [Example 15]

>  <quantity-name>
IC50

>  <recorded-number>
1.51

$$$$
>  <compound>
CCN(CC)c1ncc(N(CC)S(=O)(=O)c2cc(Cl)cc(Cl)c2)c(N[C@@H](Cc2ccc(OC(=O)N(C)C)cc2)C(=O)O)n1 [Example 20]

>  <quantity-name>
IC50

>  <recorded-number>
7.82

$$$$
>  <compound>
CCN(CC)c1ncc(N(C)S(=O)(=O)c2cc(Cl)cc(Cl)c2)c(N[C@@H](Cc2ccc(OC(=O)N(C)C)cc2)C(=O)O)n1 [Example 19]

>  <quantity-name>
IC50

>  <recorded-number>
5.31

$$$$
>  <compound>
CCN(CC)c1ncc(N(CC(C)C)S(=O)(=O)c2ccc(F)cc2)c(N[C@@H](Cc2ccc(OC(=O)N(C)C)cc2)C(=O)O)n1 [Example 23]

>  <quantity-name>
IC50

>  <recorded-number>
6.34

$$$$
>  <compound>
CCN(CC)c1ncc(N(C(C)C)S(=O)(=O)c2ccc(F)cc2)c(N[C@@H](Cc2ccc(OC(=O)N(C)C)cc2)C(=O)O)n1 [Example 8]

>  <quantity-name>
IC50

>  <recorded-number>
4.87

$$$$
>  <compound>
CCCN(c1cnc(N(CC)CC)nc1NC(Cc1ccc(OC(=O)N(C)C)cc1)C(=O)O)S(=O)(=O)c1ccc(F)cc1 (stereo not shown) [Example 21]

>  <quantity-name>
IC50

>  <recorded-number>
5.09

$$$$
>  <compound>
CCCCN(c1cnc(N(CC)CC)nc1NC(Cc1ccc(OC(=O)N(C)C)cc1)C(=O)O)S(=O)(=O)c1ccc(F)cc1 (stereo not shown) [Example 24]

>  <quantity-name>
IC50

>  <recorded-number>
4.76

$$$$
>  <compound>
C#CCN(c1cnc(N(CC)CC)nc1NC(Cc1ccc(OC(=O)N(C)C)cc1)C(=O)O)S(=O)(=O)c1ccc(F)cc1F (stereo not shown) [Example 28]

>  <quantity-name>
IC50

>  <recorded-number>
6.34

$$$$
>  <compound>
CCN(CC)c1ncc(N(C)S(=O)(=O)c2ccc(F)cc2F)c(N[C@@H](Cc2ccc(OC(=O)N(C)C)cc2)C(=O)O)n1 [Example 17]

>  <quantity-name>
IC50

>  <recorded-number>
1.65

$$$$
>  <compound>
CCN(CC)c1ncc(N(CC)S(=O)(=O)c2cc(F)cc(F)c2)c(N[C@@H](Cc2ccc(OC(=O)N(C)C)cc2)C(=O)O)n1 [Example 16]

>  <quantity-name>
IC50

>  <recorded-number>
1.67

$$$$
>  <compound>
CCN(CC)c1ncc(N(C)S(=O)(=O)c2ccc(F)c(F)c2)c(N[C@@H](Cc2ccc(OC(=O)N(C)C)cc2)C(=O)O)n1 [Example 3]

>  <quantity-name>
IC50

>  <recorded-number>
3.3

$$$$
>  <compound>
CCN(CC)c1ncc(N(C(C)C)S(=O)(=O)c2ccc(F)c(F)c2)c(NC(Cc2ccc(OC(=O)N(C)C)cc2)C(=O)O)n1 (stereo not shown) [Example 10]

>  <quantity-name>
IC50

>  <recorded-number>
7.33

$$$$
